Values compiled from paper PMC12040169.

- Assay Protocol: in vitro
- Test Context: human, hela cells, % viability
Endpoint Label: viability at 28.5 h, 10 µM (%)
Numbers only, in %.

Guide cases for viability at 28.5 h, 10 µM, answers given:
[
  {
    "Compound": "Cc1ccc2[nH]c(SCC(=O)Nc3ccc(C(=O)O)cc3)nc2c1 [CBK297526]",
    "Unit Symbol": "%",
    "viability at 28.5 h, 10 µM": 85.7
  },
  {
    "Compound": "O=C(NCC1CCCCC1)C1(Cc2ccc(-c3cccnc3)cc2)CCOCC1 [CBK285591]",
    "Unit Symbol": "%",
    "viability at 28.5 h, 10 µM": 92.6
  }
]

Value sought for every listed compound: viability at 28.5 h, 10 µM.
1. Cc1ccc(-c2ncc3c(=O)[nH]c(=O)n(C)c3n2)cc1 [CBK288553]
2. Cc1cnn(CC(=O)NC(Cc2ccsc2)c2nccs2)c1 (centres unmarked) [CBK282825]
3. O=C(Cn1nc(N2CCSCC2)ccc1=O)Nc1ccccc1 [CBK307623]

-- reply
1. 89.6
2. 105
3. 97.2
